Values compiled from patent US20200102347A1.

Catalogue of Kd readings, one per entry.
Target: T1, NativeRPtag(large)_with_Tags_and_Cys (Thermoanaerobacter tengcongensis)
T1 construct: Unlabeled in anisotropy assays; coupled through the engineered N-terminal Cys to SulfoLink agarose or maleimide plates in column, pull-down and ELISA assays
T1 chain: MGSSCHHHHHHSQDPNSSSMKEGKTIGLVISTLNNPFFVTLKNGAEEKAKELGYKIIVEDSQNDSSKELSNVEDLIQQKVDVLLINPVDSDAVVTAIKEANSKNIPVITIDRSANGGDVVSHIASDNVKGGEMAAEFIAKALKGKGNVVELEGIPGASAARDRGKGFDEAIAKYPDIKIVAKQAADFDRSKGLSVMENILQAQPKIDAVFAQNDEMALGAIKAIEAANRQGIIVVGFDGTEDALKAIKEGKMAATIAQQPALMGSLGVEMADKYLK
Assay: fluorescence anisotropy
No end group written: not given here. *: point of attachment. RhodamineB = CCN(CC)c1ccc2c(-c3ccccc3C(=O)*)c3ccc(=[N+](CC)CC)cc-3oc2c1
Provide the reading as a plain figure in nM.

Binder	Kd, nM
RhodamineB-PAELKLITKENVQ [RPtag(small) Nd8]	0.59
RhodamineB-GEKIPNFIPAEAKLITKENVQ [RPtag(small) l12a]	4.7
RhodamineB-GAKIPNFIPAELKLITKENVQ [RPtag(small) e2a]	0.1
RhodamineB-IPNFIPAELKLITKENVQ [RPtag(small) Nd3]	0.14
RhodamineB-PAELKLITKE [RPtag(small) Nd8, Cd3]	11

q: Fill in the blank: the reported Kd of RhodamineB-KIPNFIPAELKLITKA [RPtag(small) Nd2, Cd3, e18a] is ____.
a: 0.13

q: Fill in the blank: the reported Kd of RhodamineB-GEKIPNFIPAELKLIAKENVQ [RPtag(small) t16a] is ____.
a: 1.2

q: Fill in the blank: the reported Kd of RhodamineB-KIPNFIPAELKLITKENVQ [RPtag(small) Nd2] is ____.
a: 0.067

q: Fill in the blank: the reported Kd of RhodamineB-GEKIPNFIAAELKLITKENVQ [RPtag(small) p9a] is ____.
a: 0.18

q: Fill in the blank: the reported Kd of RhodamineB-FIPAELKLITKA [RPtag(small) Nd6, Cd3, e18a] is ____.
a: 8.2

q: Fill in the blank: the reported Kd of RhodamineB-LKLITKENVQ [RPtag(small) Nd11] is ____.
a: 16

q: Fill in the blank: the reported Kd of RhodamineB-IPAELKLITKENVQ [RPtag(small) Nd7] is ____.
a: 2.4

q: Fill in the blank: the reported Kd of RhodamineB-GEKIPNFIPAELKLITKENVA (built here from the native peptide with the stated change) [RPtag(small) q21a] is ____.
a: 0.1

q: Fill in the blank: the reported Kd of RhodamineB-GEAIPNFIPAELKLITKENVQ [RPtag(small) k3a] is ____.
a: 0.49

q: Fill in the blank: the reported Kd of RhodamineB-NFIPAELKLITKENVQ [RPtag(small) Nd5] is ____.
a: 0.59
